Provenance of the data: patent US8987304B2

Target: CYP2A6 (Homo sapiens)
Sequence (P11509 1-494): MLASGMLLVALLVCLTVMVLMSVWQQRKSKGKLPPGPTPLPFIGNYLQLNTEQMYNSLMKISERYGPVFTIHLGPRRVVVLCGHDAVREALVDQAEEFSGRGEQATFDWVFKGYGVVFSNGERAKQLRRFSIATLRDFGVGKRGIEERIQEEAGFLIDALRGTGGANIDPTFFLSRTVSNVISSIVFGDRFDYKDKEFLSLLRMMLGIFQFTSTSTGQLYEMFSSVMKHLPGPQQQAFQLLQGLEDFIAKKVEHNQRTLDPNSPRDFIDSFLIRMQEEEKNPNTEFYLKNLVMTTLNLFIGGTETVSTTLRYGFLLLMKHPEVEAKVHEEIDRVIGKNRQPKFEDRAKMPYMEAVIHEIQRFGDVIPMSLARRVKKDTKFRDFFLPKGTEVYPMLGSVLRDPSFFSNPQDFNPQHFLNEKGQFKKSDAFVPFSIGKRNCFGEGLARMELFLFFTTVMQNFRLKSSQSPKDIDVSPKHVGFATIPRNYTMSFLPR
Assay: coumarin hydroxylation activity in human hepatic microsome
Conditions: human, liver microsomes, pH 7.4, probe coumarin (2 μM), coumarin hydroxylation
Measurement Kind: activity at 3 μM (%)
Provide the reading as a plain figure in %.

For C[C@]1(COc2ccc(N3CCC(Oc4ccc(OC(F)(F)F)cc4)CC3)cc2)Cn2cc([N+](=O)[O-])nc2O1 the compound record lists activity at 3 μM as 102
